All values here come from patent US20260234242A1.

Listed next: entries and their corresponding EC50.
# MEASURED ON: T1, human CDH6 on tumor cells (OVCAR3 cells, PA-1 cells) (human, UniProt P55285 54-790)
# T1 sequence: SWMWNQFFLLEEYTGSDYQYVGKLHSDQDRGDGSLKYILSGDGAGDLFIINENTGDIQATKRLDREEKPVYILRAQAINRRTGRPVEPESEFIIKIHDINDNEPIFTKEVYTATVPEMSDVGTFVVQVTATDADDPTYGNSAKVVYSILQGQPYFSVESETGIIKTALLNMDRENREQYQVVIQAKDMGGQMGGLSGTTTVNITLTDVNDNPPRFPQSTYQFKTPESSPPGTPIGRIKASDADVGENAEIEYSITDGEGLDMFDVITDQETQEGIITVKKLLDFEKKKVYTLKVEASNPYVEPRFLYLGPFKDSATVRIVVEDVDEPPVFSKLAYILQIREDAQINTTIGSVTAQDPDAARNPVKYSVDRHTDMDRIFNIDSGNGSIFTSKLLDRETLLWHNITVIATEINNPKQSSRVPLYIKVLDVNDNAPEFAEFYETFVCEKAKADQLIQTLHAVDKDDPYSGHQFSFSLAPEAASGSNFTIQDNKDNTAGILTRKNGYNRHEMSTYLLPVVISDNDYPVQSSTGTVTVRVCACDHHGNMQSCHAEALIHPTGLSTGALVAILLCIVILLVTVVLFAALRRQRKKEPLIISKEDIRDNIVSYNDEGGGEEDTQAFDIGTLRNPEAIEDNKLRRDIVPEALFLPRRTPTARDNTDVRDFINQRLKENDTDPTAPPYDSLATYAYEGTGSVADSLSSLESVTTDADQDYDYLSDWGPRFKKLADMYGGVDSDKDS
# ASSAY DETAILS: FACS, OVCAR3 cells
Provide only the numeric value, understood in nM.

Check out these entries, answers already filled in.
CHI-CDH6-1 (antibody, human IgG1, kappa, V domains shown, also called CHI-hCDH6-1; CH1-CDH6-1) VH: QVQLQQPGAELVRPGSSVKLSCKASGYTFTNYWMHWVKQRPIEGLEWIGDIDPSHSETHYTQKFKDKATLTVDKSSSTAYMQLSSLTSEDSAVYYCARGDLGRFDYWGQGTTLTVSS VL: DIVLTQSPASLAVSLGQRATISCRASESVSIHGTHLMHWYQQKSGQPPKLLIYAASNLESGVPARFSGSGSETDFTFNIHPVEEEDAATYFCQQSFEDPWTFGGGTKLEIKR | 0.194
hCDH6-1-H2L2 (antibody, V domains shown, Humanized) VH: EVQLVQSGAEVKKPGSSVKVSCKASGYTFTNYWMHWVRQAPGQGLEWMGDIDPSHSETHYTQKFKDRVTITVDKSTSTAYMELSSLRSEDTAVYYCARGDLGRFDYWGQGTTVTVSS VL: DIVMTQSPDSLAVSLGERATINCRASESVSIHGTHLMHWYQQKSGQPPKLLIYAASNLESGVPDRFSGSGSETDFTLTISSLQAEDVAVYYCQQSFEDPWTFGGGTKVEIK | 0.147
hCDH6-1-H4L2 (antibody, V domains shown, Humanized) VH: EVQLVQSGAEVKKPGSSVKVSCKASGYTFTNYWMHWVRQRPGQGLEWMGDIDPSHSETHYTQKFKDRVTITVDKSTSTAYMELSSLRSEDTAVYYCARGDLGRFDYWGQGTTVTVSS VL: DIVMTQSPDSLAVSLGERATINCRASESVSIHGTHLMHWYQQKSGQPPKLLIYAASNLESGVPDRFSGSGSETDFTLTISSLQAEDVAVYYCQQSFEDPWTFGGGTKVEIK | 0.176
hCDH6-1-H1L3 (antibody, V domains shown, Humanized) VH: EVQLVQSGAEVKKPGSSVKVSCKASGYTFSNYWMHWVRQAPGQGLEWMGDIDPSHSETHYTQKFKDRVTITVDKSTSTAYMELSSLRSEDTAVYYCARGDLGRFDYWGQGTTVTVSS VL: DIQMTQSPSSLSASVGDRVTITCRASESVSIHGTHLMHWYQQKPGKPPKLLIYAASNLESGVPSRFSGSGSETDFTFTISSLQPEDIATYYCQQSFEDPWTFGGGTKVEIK | 0.175

Could you now consider this next binder?
Data point: hCDH6-1-H3L1 (antibody, V domains shown, Humanized) VH: EVQLVQSGAEVKKPGSSVKVSCKASGYTFTNYWMHWVRQAPGQGLEWMGDIDPSHSETHYTQKFKDRVTLTVDKSTSTAYMELSSLRSEDTAVYYCARGDLGRFDYWGQGTTVTVSS VL: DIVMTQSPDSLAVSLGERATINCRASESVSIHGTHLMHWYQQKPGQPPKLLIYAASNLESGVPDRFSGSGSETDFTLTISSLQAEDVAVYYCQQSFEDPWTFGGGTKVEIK ; EC50 = 0.154
